- Test system: Huh-7 HCV replicon cells
- ASSAY OVERVIEW: CC50 assay in Huh-7 HCV replicon cells (CellTiter-Glo)
- Format: cell-based, human
- STUDY CONDITIONS: 3 days, 50% cytostatic concentration
This listing pairs molecules with measured CC50.
MEASUREMENT TYPE: CC50 (µM)

>>> endpoint_result("Cc1cccc(NC(=O)N2CCN(c3nc(N)nc4ccc(-c5ccc(Cl)c(Cl)c5)nc34)CC2)c1")
1.2
>>> endpoint_result("N#Cc1ccc(-c2ccc3nc(N)nc(N4CCN(C(=O)COc5ccc(Cl)cc5)CC4)c3n2)cc1")
4.3
>>> endpoint_result("Nc1nc(N2CCS(=O)(=O)CC2)c2nc(-c3ccc(F)cc3)ccc2n1")
25.1
>>> endpoint_result("COc1ccc(-c2ccc3nc(N)nc(N4CCN(c5ccccn5)CC4)c3n2)cc1OC")
3
>>> endpoint_result("Nc1nc(N2CCN(C(=O)COc3ccc(Cl)cc3)CC2)c2nc(-c3ccc(C(F)(F)F)cc3)ccc2n1")
21.6
>>> endpoint_result("Cc1cccc(NC(=O)N2CCN(c3nc(N)nc4ccc(-c5ccccc5)nc34)CC2)c1")
4.2
>>> endpoint_result("CSc1nc(N)nc2ccc(-c3ccc(F)cc3)nc12")
25.1
>>> endpoint_result("COc1ccc(-c2ccc3nc(Nc4ccc(C)cc4)nc(N4CCN(C(=O)Nc5cccc(C)c5)CC4)c3n2)cc1OC")
25.1
>>> endpoint_result("COc1cc(-c2ccc3ncnc(N4CCN(C(=O)Nc5cccc(Cl)c5)CC4)c3n2)ccc1OC(C)C")
2.5
>>> endpoint_result("COc1ccc(-c2ccc3nc(N)nc(N4CCN(Cc5ccc6c(c5)OCO6)CC4)c3n2)cc1OC")
25.1
>>> endpoint_result("O=C(Nc1cccc(Cl)c1)N1CCN(c2ncnc3ccc(-c4ccc5c(c4)OCO5)nc23)CC1")
1.2

---

- SYSTEM UNDER TEST: HCV replicon
- ASSAY OVERVIEW: Anti-HCV assay / replicon assay (EC50, luciferase read-out)
- Assay type: cell-based, hepatitis C virus (HCV)
- STUDY CONDITIONS: human hepatoma Huh-7 cell line harbouring a HCV replicon, 3 days, luciferase luminescence; read-out: EC50
MEASUREMENT TYPE: EC50 (µM)

>>> endpoint_result("COc1ccc(-c2ccc3nc(OCCOc4ccccc4)nc(N4CCN(C(=O)Nc5cccc(C)c5)CC4)c3n2)cc1OC")
0.48
>>> endpoint_result("COc1ccc(-c2ccc3nc(N)nc(N4CCN(C(=O)COc5ccccc5)CC4)c3n2)cc1OC")
0.28
>>> endpoint_result("Cc1ccc(-c2ccc3ncnc(N4CCN(C(=O)Nc5cccc(Cl)c5)CC4)c3n2)cc1C")
0.13
>>> endpoint_result("CCOc1nc(NC(C)=O)nc2ccc(-c3ccc(F)cc3)nc12")
0.148
>>> endpoint_result("CS(=O)(=O)CCNc1nc(N)nc2ccc(-c3ccc(F)cc3)nc12")
0.099
>>> endpoint_result("COc1ccc(-c2ccc3nc(C)nc(N4CCN(C(=O)Nc5cccc(C)c5)CC4)c3n2)cc1OC")
0.075
>>> endpoint_result("COc1ccc(-c2ccc3nc(N)nc(Nc4ccc5c(c4)OCO5)c3n2)cc1OC")
0.008

---

- Test system: Huh-7 HCV replicon cells
- ASSAY OVERVIEW: CC50 assay in Huh-7 HCV replicon cells (CellTiter-Glo)
- Type: cell-based, human
- STUDY CONDITIONS: 3 days, 50% cytostatic concentration
MEASUREMENT TYPE: CC50

>>> endpoint_result("Cc1ccc(-c2ccc3ncnc(N4CCN(C(=O)Nc5cccc(Cl)c5)CC4)c3n2)cc1C")
"21.8 µM"
>>> endpoint_result("Nc1nc(N2CCN(C(=O)COc3ccc(Cl)cc3)CC2)c2nc(-c3ccc(F)c(Cl)c3)ccc2n1")
"5.9 µM"
>>> endpoint_result("CC(C)Oc1nc(N)nc2ccc(-c3ccc(F)cc3)nc12")
"50.1 µM"
>>> endpoint_result("CCOc1nc(NC(C)=O)nc2ccc(-c3ccc(F)cc3)nc12")
"25.1 µM"
